Values compiled from patent US20120220567A1.

target: SCD-1 (Homo sapiens); construct: 50 μg of protein from a HepG2 cell P2 pellet; endogenous in cells; host or cells: HepG2 cells (P2 pellet); test: Stearoyl-CoA desaturase assay (HepG2 cell P2 pellet); type: biochemical; settings: Table 1, compounds of formula (Ia); protein from HepG2 cell P2 pellet, 20 μM stearoyl-CoA, 15 min at 25° C.; read-out: Ave IC50
Sequence (O00767 whole entry): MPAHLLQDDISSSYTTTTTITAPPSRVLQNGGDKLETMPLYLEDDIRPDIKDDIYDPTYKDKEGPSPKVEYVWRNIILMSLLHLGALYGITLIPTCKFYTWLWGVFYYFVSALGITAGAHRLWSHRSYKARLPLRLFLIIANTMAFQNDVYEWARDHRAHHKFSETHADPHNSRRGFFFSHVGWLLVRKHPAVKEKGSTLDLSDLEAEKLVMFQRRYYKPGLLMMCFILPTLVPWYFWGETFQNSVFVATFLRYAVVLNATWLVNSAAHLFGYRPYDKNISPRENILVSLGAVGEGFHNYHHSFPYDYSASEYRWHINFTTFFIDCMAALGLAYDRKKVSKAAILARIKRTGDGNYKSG
Quick reference: IC50 of the listed items.
Endpoint name: IC50

• CC(=O)NCC(=O)N1CCC2(CC1)CCN(Cc1ccccc1C)c1ccccc1O2 = 0.5 to 10 µM
• CC(=O)NCC(=O)N1CCC2(CC1)CCN(Cc1ccc(Cl)cc1)c1ccccc1O2 = > 10 µM
• CC(=O)NCC(=O)N1CCC2(CC1)CCN(Cc1cccc(O)c1)c1ccccc1O2 = 0.5 to 10 µM
• CC(=O)NCC(=O)N1CCC2(CC1)CCN(Cc1cccc(C(F)(F)F)c1)c1ccccc1O2 = > 10 µM
• CCc1ccc(CN2CCC3(CCN(C(=O)CNC(=O)C4CC4)CC3)Oc3ccccc32)cc1 = 0.5 to 10 µM
• COc1ccccc1CN1CCC2(CCN(C(=O)CNC(C)=O)CC2)Oc2ccccc21 = 0.5 to 10 µM
• CC(=O)NCC(=O)N1CCC2(CC1)CCN(Cc1ccc(C)s1)c1ccccc1O2 = > 10 µM
• CC(=O)NCC(=O)N1CCC2(CC1)CCN(Cc1ccc(C)cc1)c1ccccc1O2 = 0.5 to 10 µM
